Quick reference: Binding affinity (OCTET) Kdis of the listed items.
SYSTEM: T1, AXLECDHis (extracellular domain of human AXL) (Homo sapiens, UniProt P30530)
T1 construct: the extracellular domain (ECD) of human AXL (aa 1-447) with a C-terminal His tag (AXLECDHis); His tag (C); made in house; host or cells: HEK-293F
T1 sequence (P30530 26-447): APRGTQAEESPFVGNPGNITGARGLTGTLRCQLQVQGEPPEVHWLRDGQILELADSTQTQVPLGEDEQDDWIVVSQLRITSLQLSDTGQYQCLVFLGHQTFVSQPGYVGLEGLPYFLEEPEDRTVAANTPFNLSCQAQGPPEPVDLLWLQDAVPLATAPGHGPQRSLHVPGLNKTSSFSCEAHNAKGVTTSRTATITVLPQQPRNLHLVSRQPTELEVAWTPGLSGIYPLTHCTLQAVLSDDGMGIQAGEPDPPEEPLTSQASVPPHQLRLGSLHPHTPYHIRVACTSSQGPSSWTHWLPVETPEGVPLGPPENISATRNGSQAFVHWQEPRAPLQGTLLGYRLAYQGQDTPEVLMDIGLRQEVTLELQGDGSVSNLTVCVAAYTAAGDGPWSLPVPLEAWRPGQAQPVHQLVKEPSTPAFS
ASSAY_SUMMARY: Binding affinity by Bio-Layer Interferometry (ForteBio OctetRED384)
MEASUREMENT_PARAMETERS: 1:1 model, 30° C.
READOUT_KIND: Binding affinity (OCTET) Kdis (s⁻¹)

{"MOLECULE": "IgG1-AXL-148: AXL-specific human IgG1,κ antibody, VH SEQ ID NO:5, VL SEQ ID NO:6, Ig2 domain binding (antibody, listed as Homo sapiens, V domains shown) VH: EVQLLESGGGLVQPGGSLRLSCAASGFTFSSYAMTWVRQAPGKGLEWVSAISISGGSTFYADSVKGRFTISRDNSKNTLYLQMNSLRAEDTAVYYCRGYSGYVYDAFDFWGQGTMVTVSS VL: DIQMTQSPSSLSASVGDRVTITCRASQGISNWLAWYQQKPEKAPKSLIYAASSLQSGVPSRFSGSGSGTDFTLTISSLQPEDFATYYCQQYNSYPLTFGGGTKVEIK", "MEASURE_UNIT": "s⁻¹", "RESULT_NUMBER": 0.0044}
{"MOLECULE": "IgG1-AXL-733: AXL-specific human IgG1,κ antibody, VH SEQ ID NO:34, VL SEQ ID NO:35, FN1 domain binding (antibody, listed as Homo sapiens, V domains shown) VH: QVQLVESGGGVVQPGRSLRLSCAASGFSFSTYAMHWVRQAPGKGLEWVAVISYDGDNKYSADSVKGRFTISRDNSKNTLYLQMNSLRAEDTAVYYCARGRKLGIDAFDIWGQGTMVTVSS VL: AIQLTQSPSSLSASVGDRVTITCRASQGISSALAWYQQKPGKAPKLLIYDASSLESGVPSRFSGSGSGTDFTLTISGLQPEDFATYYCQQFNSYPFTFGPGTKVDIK", "MEASURE_UNIT": "s⁻¹", "RESULT_NUMBER": 0.0097}
{"MOLECULE": "IgG1-AXL-726-M101L: point mutant of IgG1-AXL-726, VH SEQ ID NO:32, VL SEQ ID NO:33 (antibody, listed as Homo sapiens, V domains shown) VH: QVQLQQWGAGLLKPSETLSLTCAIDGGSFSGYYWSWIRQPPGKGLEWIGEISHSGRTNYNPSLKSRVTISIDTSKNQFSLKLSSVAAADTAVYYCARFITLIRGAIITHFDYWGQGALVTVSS VL: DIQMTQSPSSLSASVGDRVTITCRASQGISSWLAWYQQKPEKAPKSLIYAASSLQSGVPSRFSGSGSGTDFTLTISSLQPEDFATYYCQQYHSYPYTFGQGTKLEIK", "MEASURE_UNIT": "s⁻¹", "RESULT_NUMBER": "6.9e-05"}
{"MOLECULE": "IgG1-AXL-511: AXL-specific human IgG1,κ antibody, VH SEQ ID NO:136, VL SEQ ID NO:140, Ig2 domain binding (antibody, listed as Homo sapiens, V domains shown) VH: EVQLLESGGGLVQPGGSLRLSCAASGFTFSSYAMNWVRQAPGKGLEWVSGISGSGGHTYHADSVKGRFTISRDNSKNTLYLQMNSLRAEDTAVYYCAKDRYDILTGYYNLLDYWGQGTLVTVSS VL: DIQMTQSPSSLSASVGDRVTITCRASQGISSWLAWYQQKPEEAPKSLIYAASSLQSGVPSRFSGSGSGTDFTLTISSLQPEDFATYYCQQYNSYPLTFGGGAKVEIK", "MEASURE_UNIT": "s⁻¹", "RESULT_NUMBER": 0.0039}
{"MOLECULE": "IgG1-AXL-183: AXL-specific human IgG1,κ antibody, VH SEQ ID NO:16, VL SEQ ID NO:18, FN1 domain binding (antibody, listed as Homo sapiens, V domains shown) VH: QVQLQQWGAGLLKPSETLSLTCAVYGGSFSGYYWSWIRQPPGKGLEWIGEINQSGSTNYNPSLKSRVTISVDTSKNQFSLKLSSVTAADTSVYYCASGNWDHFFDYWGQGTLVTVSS VL: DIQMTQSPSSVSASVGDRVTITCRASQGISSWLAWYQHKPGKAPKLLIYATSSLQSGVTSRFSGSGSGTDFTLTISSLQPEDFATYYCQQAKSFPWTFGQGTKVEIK", "MEASURE_UNIT": "s⁻¹", "RESULT_NUMBER": 0.00042}
{"MOLECULE": "IgG1-AXL-726: AXL-specific human IgG1,κ antibody, VH SEQ ID NO:31, VL SEQ ID NO:33, FN2 domain binding (antibody, listed as Homo sapiens, V domains shown) VH: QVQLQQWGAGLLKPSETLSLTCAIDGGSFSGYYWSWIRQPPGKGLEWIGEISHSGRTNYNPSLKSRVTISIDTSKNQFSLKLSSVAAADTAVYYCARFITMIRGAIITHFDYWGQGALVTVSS VL: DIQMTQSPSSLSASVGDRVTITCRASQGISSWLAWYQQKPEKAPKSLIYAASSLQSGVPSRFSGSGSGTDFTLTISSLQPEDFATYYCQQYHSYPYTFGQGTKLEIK", "MEASURE_UNIT": "s⁻¹", "RESULT_NUMBER": 0.00013}
{"MOLECULE": "IgG1-AXL-183-N52Q: point mutant of IgG1-AXL-183, VH SEQ ID NO:17, VL SEQ ID NO:18 (antibody, listed as Homo sapiens, V domains shown) VH: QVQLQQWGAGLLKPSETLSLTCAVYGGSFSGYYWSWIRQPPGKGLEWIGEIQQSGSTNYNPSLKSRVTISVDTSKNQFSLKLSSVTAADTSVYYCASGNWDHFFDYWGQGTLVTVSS VL: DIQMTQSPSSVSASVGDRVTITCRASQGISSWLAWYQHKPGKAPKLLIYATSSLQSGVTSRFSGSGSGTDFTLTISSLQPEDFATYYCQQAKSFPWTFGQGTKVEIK", "MEASURE_UNIT": "s⁻¹", "RESULT_NUMBER": 0.001}
